Every entry's value here was drawn from ChEMBL document CHEMBL1132699.

Exercise: state measured pIC50 for each of the molecules provided.
System: MCF7
Test: Tested in vitro for anticancer activity against MCF-7 cells
Format: functional, cell-based
Conditions: Homo sapiens
pIC50: −log10 of the molar value.

In: Form: Entry = Nc1nc(=O)n([C@H]2C=C[C@@H](CO)O2)cc1I | System = MCF7 | pIC50 = ____
Out: < 4.00

In: Form: Entry = CCCC(=O)OC[C@@H]1C=C[C@H](n2cc(F)c(N)nc2=O)O1 | System = MCF7 | pIC50 = ____
Out: < 4.00

In: Form: Entry = CCCCC(=O)OC[C@@H]1C=C[C@H](n2cc(F)c(N)nc2=O)O1 | System = MCF7 | pIC50 = ____
Out: < 4.00

In: Form: Entry = Nc1nc(=O)n([C@H]2C=C[C@@H](CO)O2)cc1F | System = MCF7 | pIC50 = ____
Out: < 4.00

In: Form: Entry = O=c1[nH]c(=O)n([C@@H]2C=C[C@@H](CO)O2)cc1F | System = MCF7 | pIC50 = ____
Out: 4.17

In: Form: Entry = Nc1nc(=O)n([C@@H]2C=C[C@@H](CO)O2)cc1F | System = MCF7 | pIC50 = ____
Out: < 4.00

In: Form: Entry = Cc1cn([C@H]2C[C@H](N=[N+]=[N-])[C@@H](CO)O2)c(=O)[nH]c1=O | System = MCF7 | pIC50 = ____
Out: < 5.00

In: Form: Entry = Nc1nc(=O)n([C@@H]2C=C[C@H](CO)O2)cc1F | System = MCF7 | pIC50 = ____
Out: 4.08

In: Form: Entry = C[C@@H]1C[C@@H]([C@H](O)CC2CC(=O)NC(=O)C2)C(=O)[C@@H](C)C1 [CYCLOHEXIMIDE] | System = MCF7 | pIC50 = ____
Out: 5.82

In: Form: Entry = CCCNc1nc(=O)n([C@H]2C=C[C@@H](CO)O2)cc1F | System = MCF7 | pIC50 = ____
Out: < 4.00

* * *

Exercise: state measured pIC50 for each of the molecules provided.
System: HepG2
Assay: Tested in vitro for anticancer activity against HepG2 cells
Assay type: functional, cell-based
Settings: Homo sapiens
pIC50: −log10 of the molar value.

In: What value of pIC50 has been recorded for this entry: Nc1nc(=O)n([C@H]2C=C[C@@H](CO)O2)cc1I
Out: < 4.00

In: What value of pIC50 has been recorded for this entry: Nc1nc(=O)n([C@@H]2C=C[C@@H](CO)O2)cc1F
Out: < 4.00

In: What value of pIC50 has been recorded for this entry: Nc1nc(=O)n([C@@H]2C=C[C@H](CO)O2)cc1F [ELVUCITABINE]
Out: 3.93

In: What value of pIC50 has been recorded for this entry: Nc1nc(=O)n([C@H]2C=C[C@@H](CO)O2)cc1Br
Out: < 4.00

In: What value of pIC50 has been recorded for this entry: O=c1[nH]c(=O)n([C@@H]2C=C[C@H](CO)O2)cc1F
Out: 4.45

In: What value of pIC50 has been recorded for this entry: CCCNc1nc(=O)n([C@H]2C=C[C@@H](CO)O2)cc1F
Out: < 4.00

In: What value of pIC50 has been recorded for this entry: CCCCC(=O)OC[C@@H]1C=C[C@H](n2cc(F)c(N)nc2=O)O1
Out: < 4.00

In: What value of pIC50 has been recorded for this entry: O=C1NC(O)C(F)=CN1[C@H]1C=C[C@@H](CO)O1 (stereo partly specified)
Out: 4.23

In: What value of pIC50 has been recorded for this entry: Nc1nc(=O)n([C@H]2C=C[C@@H](CO)O2)cc1F [DEXELVUCITABINE]
Out: < 4.00

In: What value of pIC50 has been recorded for this entry: CC(=O)Nc1nc(=O)n([C@H]2C=C[C@@H](CO)O2)cc1F
Out: < 4.00

In: What value of pIC50 has been recorded for this entry: CCCC(=O)OC[C@@H]1C=C[C@H](n2cc(F)c(N)nc2=O)O1
Out: < 4.00
